# TESTED TARGET: CK2 (Homo sapiens (Human))
# Sequence (P68400 whole entry): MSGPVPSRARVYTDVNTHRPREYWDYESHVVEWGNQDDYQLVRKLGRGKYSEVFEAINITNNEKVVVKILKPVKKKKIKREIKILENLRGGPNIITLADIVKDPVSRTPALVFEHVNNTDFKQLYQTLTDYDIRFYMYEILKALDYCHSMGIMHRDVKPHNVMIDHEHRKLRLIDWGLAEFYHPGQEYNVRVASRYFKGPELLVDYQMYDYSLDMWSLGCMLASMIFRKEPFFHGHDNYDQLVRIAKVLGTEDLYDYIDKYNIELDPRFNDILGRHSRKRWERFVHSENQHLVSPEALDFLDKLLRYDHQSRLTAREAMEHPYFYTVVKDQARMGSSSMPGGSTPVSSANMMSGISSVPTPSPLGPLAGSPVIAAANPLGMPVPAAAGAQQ
# EXPERIMENT DESCRIPTION: Radiometric CK2 kinase assay
# Format: biochemical
# RUN PARAMETERS: compound at 0.10 μM; ATP 10 μM
Some molecules, each annotated with its measured inhibition at 0.1 µM.
A number alone suffices; assume %.

{"MOLECULE": "CC(=O)c1[nH]c2ccc(F)cc2c1-c1cn(C[C@H]2CCCN(CCNS(=O)(=O)c3ccc(CC(C)C)cc3)C2)nn1 [AB1403]", "UNIT TAG": "%", "inhibition at 0.1 µM": 9}
{"MOLECULE": "CCCC(=O)c1[nH]c2ccc(F)cc2c1-c1cn(CC2CCN(CCNS(=O)(=O)Cc3ccc(C(F)(F)F)cc3)CC2)nn1 [AB1307]", "UNIT TAG": "%", "inhibition at 0.1 µM": 12}
{"MOLECULE": "CC(=O)c1[nH]c2ccc(F)cc2c1-c1cn(CC2CCN(CCNS(=O)(=O)Cc3ccc(C(F)(F)F)cc3)CC2)nn1 [AB1315]", "UNIT TAG": "%", "inhibition at 0.1 µM": 27}
{"MOLECULE": "CC(C)COC(=O)c1[nH]c2ccc(F)cc2c1-c1cn(CC2CCN(CCNS(=O)(=O)c3ccc(-c4ccc(C#N)cc4)cc3)CC2)nn1 [AB1134]", "UNIT TAG": "%", "inhibition at 0.1 µM": 5}

Return inhibition at 0.1 µM (reported value) for this molecule: CCC(C)C(=O)c1[nH]c2ccc(F)cc2c1-c1cn(CC2CCN(CCNS(=O)(=O)c3ccc(CC(C)C)cc3)CC2)nn1 (centres unmarked) [AB1302]
10

---

# TESTED TARGET: CK2 (Homo sapiens (Human))
# EXPERIMENT DESCRIPTION: Radiometric CK2 kinase assay
# Assay type: biochemical
# RUN PARAMETERS: compound at 1 μM; ATP 10 μM
This section presents molecules with their documented inhibition at 1 µM values.
Number in %, nothing else.

// below: answered molecules
{"MOLECULE": "CC(C)COC(=O)c1[nH]c2ccc(F)cc2c1-c1cn(CC2CCN(Cc3ccc(-c4ccc5c(c4)CCO5)c(Cl)c3)CC2)nn1 [AB731]", "MEASURED NUMBER": 5}
{"MOLECULE": "CC(C)CCOC(=O)c1[nH]c2ccc(F)cc2c1-c1cn(CC2CCN(CCNS(=O)(=O)c3ccc(CC(C)C)cc3)CC2)nn1 [AB669]", "MEASURED NUMBER": 32}
{"MOLECULE": "CC(C)COC(=O)c1[nH]c2ccc(F)cc2c1-c1cn(CC2CCN(Cc3ccc(-c4cccc5[nH]ccc45)c(Cl)c3)CC2)nn1 [AB690]", "MEASURED NUMBER": 31}
{"MOLECULE": "COc1ccc(C)cc1-c1ccc(CN2CCC(Cn3cc(-c4c(C(=O)OCC(C)C)[nH]c5ccc(F)cc45)nn3)CC2)cc1Cl [AB692]", "MEASURED NUMBER": 5}
{"MOLECULE": "COCc1ccccc1-c1ccc(CN2CCC(Cn3cc(-c4c(C(=O)OCC(C)C)[nH]c5ccc(F)cc45)nn3)CC2)cc1Cl [AB680]", "MEASURED NUMBER": 11}

State, for CK2 (Homo sapiens (Human)), measured inhibition at 1 µM of the molecule listed here: CC(C)COC(=O)c1[nH]c2ccc(F)cc2c1-c1cn(CC2CCN(Cc3ccc(Oc4cccc(C(C)C)c4)c(C(C)C)c3)CC2)nn1 [AB713]
5

Jot down inhibition at 1 µM (CK2 (Homo sapiens (Human))) of CC(C)COC(=O)c1[nH]c2ccc(F)cc2c1-c1cn(CC2CCN(Cc3ccc(-c4cccc(C(C)C)c4)c(Cl)c3)CC2)nn1 [AB758] .
17
